Hey, just so you know, these numbers are from patent US10160719B2.

# assay.overview: physchem
# condition: water, Solubility of the active compound saccharinate in mg/ml of water
measure.name: solubility at 10 min

Qu. Returns the measured solubility at 10 min for the input molecule. Input: COc1cc(N)cn[n+]1-c1ccccc1 [Amezinium saccharinate, Amezinium]
Ans. ≥ 8000 µg/mL

---

# assay.overview: water solubility determination at 20° C. in ion-free water
# condition: ion-free water, water, Solubility of the active compound saccharinate in mg/ml of water, saccharinate salt, 20° C.
measure.name: solubility at 10 min

Qu. Returns the measured solubility at 10 min for the input compound. Input: COc1cccc([C@@]2(O)CC[C@H](OCc3ccc(F)cc3)C[C@@H]2CN(C)C)c1
Ans. ≥ 10000 µg/mL

---

# assay.overview: water solubility determination at 20° C. in ion-free water
# condition: ion-free water, water, Solubility of the active compound salt in mg/ml of water, conventional salt of the active compound (salt indicated in brackets), 20° C.
measure.name: solubility at 10 min

Qu. Returns the measured solubility at 10 min for the input molecule. Input: COc1cccc([C@@]2(O)CC[C@H](OCc3ccc(F)cc3)C[C@@H]2CN(C)C)c1
Ans. ≥ 33 mg/mL

---

# assay.overview: water solubility determination at 20° C. in ion-free water
# condition: water, Solubility of the active compound salt in mg/ml of water, conventional salt of the active compound (salt indicated in brackets); ion-free water, 20° C.
Structures can show the parent of a compound that is named as a salt.
Please respond with reported solubility at 10 min for every item in the list.

In [3]: df
Out[3]:
                                   molecule  observed_result
0  COc1ccc2c3c1O[C@H]1[C@@H](O)C=C[C@H]4[C@@H](C2)N(C)CC[C@@]341 [Codeine phosphate hemihydrate, Codeine]      ≥ 250 mg/mL
1      CC[C@@H](c1cccc(O)c1)[C@@H](C)CN(C)C      ≥ 261 mg/mL
2  COc1cccc([C@@]2(O)C[C@H](O)CC[C@@H]2CN(C)C)c1 (racemic)      ≥ 500 mg/mL

Each molecule below has a recorded value; state its solubility at 10 min.
1. CC[C@@](F)(c1cccc(O)c1)[C@@H](C)CN(C)C
2. CNC[C@H](O)c1cccc(O)c1 [Phenylephrine hydrochloride, Phenylephrine]
3. CC[C@@](O)(c1cccc(OC)c1)[C@@H](C)CN(C)C
4. CC[C@H](c1cccc(O)c1)[C@H](C)CN(C)C.Cl

Ans.
1. ≥ 568 mg/mL
2. ≥ 1250 mg/mL
3. ≥ 2000 mg/mL
4. ≥ 650 mg/mL

---

# assay.overview: physchem
# condition: water, Solubility of the active compound salt in mg/ml of water
measure.name: solubility at 10 min

Qu. Returns the measured solubility at 10 min for the input compound. Input: COc1cc(N)cn[n+]1-c1ccccc1 [Amezinium metilsulfate, Amezinium]
Ans. ≥ 25 mg/mL

---

Please respond with reported solubility at 10 min for every item in the list.
# assay.overview: water solubility determination at 20° C. in ion-free water
# condition: water, Solubility of the active compound saccharinate in mg/ml of water, saccharinate salt; ion-free water, 20° C.

Below: 5 compounds and their reported solubility at 10 min.
                                   compound          measure_name  observed_result
0    CC[C@@](F)(c1cccc(O)c1)[C@@H](C)CN(C)C  solubility at 10 min      ≥ 130 mg/mL
1  COc1cccc([C@@]2(O)C[C@H](O)CC[C@@H]2CN(C)C)c1 (racemic)  solubility at 10 min       ≥ 71 mg/mL
2   CC[C@@](O)(c1cccc(OC)c1)[C@@H](C)CN(C)C  solubility at 10 min       ≥ 90 mg/mL
3  CNC[C@H](O)c1cccc(O)c1 [Phenylephrine saccharinate, Phenylephrine]  solubility at 10 min      ≥ 380 mg/mL
4      CC[C@@H](c1cccc(O)c1)[C@@H](C)CN(C)C  solubility at 10 min       ≥ 31 mg/mL

Attention now turns to another entry.
Qu. Returns the measured solubility at 10 min for the input compound. Input: COc1ccc2c3c1O[C@H]1[C@@H](O)C=C[C@H]4[C@@H](C2)N(C)CC[C@@]341 [Codeine saccharinate, Codeine]
Ans. ≥ 200 mg/mL
